The reported measurements were obtained from patent US20240182556A1.

Target: T1, PE9413, C-terminal biotinylated peptide mapping on Exon6 of the SCF molecule (SCF248) (C-terminal biotin)
T1 construct: also called C-terminal biotinylated PE9413; C-ter PE9413
T1 peptide: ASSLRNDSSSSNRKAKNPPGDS
Assay: yeast-displayed scFv, flow cytometry titration of biotinylated peptide
Protocol: The binding of the selected 48 clones described above to 170 nM of C-terminal biotinylated PE9413 was evaluated. The 24 clones with the highest binding signal were further evaluated for binding affinity. Each clone was incubated with increasing amounts of biotinylated PE9413, and stained with a fluorescently labeled anti-streptavidin antibody. Binding of the clone to PE9413 was analyzed by flow cytometry. […]
Quantity: Kd (nM)

Binder	Numeric result
H74P scFv displayed on yeast (scFv, V domains shown, Aga2-anchored, VH-VL orientation; not shown: linker; SV5 tag) VH: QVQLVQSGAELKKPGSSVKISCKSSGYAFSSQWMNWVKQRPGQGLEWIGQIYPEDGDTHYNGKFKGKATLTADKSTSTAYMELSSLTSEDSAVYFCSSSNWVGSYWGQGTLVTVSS VL: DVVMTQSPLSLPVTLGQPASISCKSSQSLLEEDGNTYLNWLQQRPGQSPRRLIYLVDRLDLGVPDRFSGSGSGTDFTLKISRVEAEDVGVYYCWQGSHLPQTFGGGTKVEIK	3.84
A64P scFv displayed on yeast (scFv, V domains shown, Aga2-anchored, VH-VL orientation; not shown: linker; SV5 tag) VH: QVQLVQSGAELKKPGSSVKISCKSSGYAFSSNWMNWVKQRPGQGLEWIGQIYPEDGDTHYNGKFKGKATLTADKSTSTAYMELSSLTSEDSAVYFCSSSNWVGSYWGQGTLVTVSS VL: DVVMTQSPLSLPVTLGQPASISCKSSQSLLEEDGNTYLNWLQQRPGQSPRRLIYLVNRLDDGVPDRFSGSGSGTDFTLKISRVEAEDVGVYYCWQGTDLPQTFGGGTKVEIK	3.29
B124P scFv displayed on yeast (scFv, V domains shown, Aga2-anchored, VH-VL orientation; not shown: linker; SV5 tag) VH: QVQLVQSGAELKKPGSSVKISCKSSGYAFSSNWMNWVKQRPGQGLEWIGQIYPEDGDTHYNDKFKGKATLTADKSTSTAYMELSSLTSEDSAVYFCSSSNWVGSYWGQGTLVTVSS VL: DVVMTQSPLSLPVTLGQPASISCKSSQSLLEQDGNTYLNWLQQRPGQSPRRLIYLVDRLDSGVPDRFSGSGSGTDFTLKISRVEAEDVGVYYCWQGTDLPQTFGGGTKVEIK	3.82
